Test Target: EIF3H (UniProt O15372)
Sequence (O15372 whole entry, the tested form may be a part): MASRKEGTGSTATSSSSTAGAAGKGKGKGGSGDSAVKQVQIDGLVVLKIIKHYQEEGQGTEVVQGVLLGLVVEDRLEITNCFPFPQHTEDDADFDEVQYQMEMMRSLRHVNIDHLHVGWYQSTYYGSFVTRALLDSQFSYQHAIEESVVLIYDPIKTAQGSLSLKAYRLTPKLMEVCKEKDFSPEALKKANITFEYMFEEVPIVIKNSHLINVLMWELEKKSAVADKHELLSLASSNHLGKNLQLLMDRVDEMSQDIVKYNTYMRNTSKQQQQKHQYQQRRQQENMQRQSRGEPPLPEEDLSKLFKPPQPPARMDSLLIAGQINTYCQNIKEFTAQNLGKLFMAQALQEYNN
Assay Comment: log2 ratio of Biotin-Ahx-Ub-VS probe labelling (fragment/DMSO); higher = less target engagement (more negative = stronger competition), active = hit call of the paper (q ≤ 0.05, log2 ratio ≤ -1)
Details: compound concentration: 200 uM; treatment time: 3 h
Hi, to clarify the labels: Condition met covers log2 ratio of Biotin-Ahx-Ub-VS probe labelling from 0.09 upward, Condition not met covers anything below 0.09.

| Molecule | Test Target | Group Label |
| --- | --- | --- |
| O=C(CCl)N1CCC(C(O)c2ccc(F)cc2)CC1 (configuration not stated) | EIF3H (UniProt O15372) | Condition met |
| Cc1nc(CN2CCN(C(=O)CCl)CC2)cs1 | EIF3H (UniProt O15372) | Condition not met |
| CCC(NC(=O)CCl)c1ccc(Cl)cc1 (configuration not stated) | EIF3H (UniProt O15372) | Condition not met |
| CC(O)CC1CCN(C(=O)CCl)CC1 (configuration not stated) | EIF3H (UniProt O15372) | Condition met |
| O=C(CCl)NCc1ccc(N2CCOCC2)nc1 | EIF3H (UniProt O15372) | Condition met |
| O=C(CCl)N1CCC(C(=O)N2CCCC2)CC1 | EIF3H (UniProt O15372) | Condition not met |
